Target: T1, biotinylated recombinant human IL-12Rβ2 (produced in-house) (human, UniProt Q99665 24-622, random biotinylated)
T1 construct: also called hIL-12RB2; hIL12RB2
T1 sequence: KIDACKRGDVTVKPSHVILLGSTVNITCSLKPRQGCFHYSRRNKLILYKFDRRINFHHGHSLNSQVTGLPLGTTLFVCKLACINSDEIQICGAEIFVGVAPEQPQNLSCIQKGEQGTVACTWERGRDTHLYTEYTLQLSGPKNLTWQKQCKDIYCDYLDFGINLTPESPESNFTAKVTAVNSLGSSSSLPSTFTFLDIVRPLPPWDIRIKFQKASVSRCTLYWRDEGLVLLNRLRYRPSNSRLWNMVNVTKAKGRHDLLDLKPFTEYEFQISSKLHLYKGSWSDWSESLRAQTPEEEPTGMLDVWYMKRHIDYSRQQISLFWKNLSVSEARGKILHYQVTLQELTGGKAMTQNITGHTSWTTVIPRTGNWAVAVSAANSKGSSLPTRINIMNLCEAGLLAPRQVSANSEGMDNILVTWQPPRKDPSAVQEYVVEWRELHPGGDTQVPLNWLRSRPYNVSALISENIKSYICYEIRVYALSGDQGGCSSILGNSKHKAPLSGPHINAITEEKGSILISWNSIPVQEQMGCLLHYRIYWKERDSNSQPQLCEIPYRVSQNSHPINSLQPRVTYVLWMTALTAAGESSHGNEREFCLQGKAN
Experiment: BLI (Octet), P.E. VHH on immobilised biotinylated hIL-12RB2, 1:1 model
Is koff at least 0.003 s⁻¹? Then Satisfied. If not, Not satisfied.

Request: Kindly determine if koff recorded for anti-IL-12Rβ2 VHH clone 3CRHS9 (VHH, not shown: small tags and cut ends, tested as periplasmic extract) VHH: QVQLQESGGGLVQPGGSLRLSCTASGSIVSIYNMDWYRQAPGNEREWVASITSSGDPYYDGSAKGRFTISRDNAKMTVYLQMNSLKPEDTAVYYCKVPTEKGNYWGQGTQVTVSS is above or exactly 0.003 s⁻¹.
Result: Satisfied

Request: Kindly determine if koff recorded for anti-IL-12Rβ2 VHH clone 3CRH25 (VHH, not shown: small tags and cut ends, tested as periplasmic extract) VHH: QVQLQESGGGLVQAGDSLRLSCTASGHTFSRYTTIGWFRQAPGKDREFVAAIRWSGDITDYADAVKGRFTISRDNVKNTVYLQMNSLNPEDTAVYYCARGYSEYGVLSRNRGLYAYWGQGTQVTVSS is above or exactly 0.003 s⁻¹.
Result: Not satisfied

Request: Kindly determine if koff recorded for anti-IL-12Rβ2 VHH clone 3CRHM99 (VHH, not shown: small tags and cut ends, tested as periplasmic extract; also called 21062) VHH: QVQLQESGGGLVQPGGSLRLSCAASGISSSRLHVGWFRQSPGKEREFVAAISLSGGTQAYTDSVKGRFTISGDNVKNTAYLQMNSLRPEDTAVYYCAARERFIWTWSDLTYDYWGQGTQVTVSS is above or exactly 0.003 s⁻¹.
Result: Satisfied

Request: Kindly determine if koff recorded for anti-IL-12Rβ2 VHH clone 3CRHS54 (VHH, not shown: small tags and cut ends, tested as periplasmic extract; also called 3CRHSS4) VHH: QVQLQESGGGLVQPGGSLRLSCTASGSIVSIYNMDWYRQAPGNEREWVASITSSGDPYYDGSAKGRFTISRDNAKMTVYLQMNSLEPEDTAVYFCKVPTEKGNYWGQGTQVTVSS is above or exactly 0.003 s⁻¹.
Result: Not satisfied

Request: Kindly determine if koff recorded for anti-IL-12Rβ2 VHH clone 3CAHS102 (VHH, not shown: small tags and cut ends, tested as periplasmic extract) VHH: QVQLQESGGGLVQPGGSLRLSCAASGSILRINLMGWYRQVPGKQRELVAEMSTGGSTTYVDSVEGRFTISRDNAKNTVYLQMNSLKPEDTAVYYCNAKAWQLGRLENDDWGQGTQVTVSS is above or exactly 0.003 s⁻¹.
Result: Not satisfied

Ref: patent US20260209362A1
